As shown below, each of these molecules has a reported pKi value.
molecular target: human κOR (Homo sapiens, UniProt P41145)
Sequence (P41145 whole entry): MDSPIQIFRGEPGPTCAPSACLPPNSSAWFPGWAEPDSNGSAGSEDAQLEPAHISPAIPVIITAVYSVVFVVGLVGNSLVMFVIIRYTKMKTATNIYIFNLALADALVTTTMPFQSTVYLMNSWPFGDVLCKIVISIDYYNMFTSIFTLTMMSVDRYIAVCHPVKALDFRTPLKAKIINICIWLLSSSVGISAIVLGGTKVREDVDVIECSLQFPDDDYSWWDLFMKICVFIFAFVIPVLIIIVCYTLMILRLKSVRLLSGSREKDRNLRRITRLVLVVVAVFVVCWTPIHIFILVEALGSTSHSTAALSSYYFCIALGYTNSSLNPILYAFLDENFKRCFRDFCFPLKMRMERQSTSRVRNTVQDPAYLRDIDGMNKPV
Quick note: pKi means taking -log10 of the concentration in moles per liter.

Molecule | pKi
CO[C@@]12CCC(=O)[C@]3(C)Oc4c(O)ccc5c4[C@@]31CCN(CCc1ccccc1)[C@@H]2C5 | 7.45

[in] Please give measured pKi of the following entry: CO[C@@]12CCC(=O)[C@@H]3Oc4c(O)ccc5c4[C@@]31CCN(C)[C@@H]2C5 [14-OMO (3), 14-O-methyloxymorphone, reference compound]
[out] 7.99

[in] Please give measured pKi of the following entry: CO[C@@]12CCC(=O)[C@]3(C)Oc4c(O)ccc5c4[C@@]31CCN(C)[C@@H]2C5 [14-MM (4), 14-methoxymetopon, reference compound]
[out] 7.89

[in] Please give measured pKi of the following entry: Oc1ccc2c3c1O[C@H]1[C@@H](O)C=C[C@H]4[C@@H](C2)N(CCc2ccccc2)CC[C@@]341
[out] 7.03

[in] Please give measured pKi of the following entry: CO[C@@]12CCC(=O)[C@@H]3Oc4c(O)ccc5c4[C@@]31CCN(CCc1ccccc1)[C@@H]2C5
[out] 7.80

====

target: human µOR (Homo sapiens); construct: host or cells: CHO cells (CHO-hµOR; CHO-hµOR-p22F for the cAMP assay); experiment: cell-based; format: cell-based; details: read-out: µOR % stim.
Sequence (P35372 whole entry): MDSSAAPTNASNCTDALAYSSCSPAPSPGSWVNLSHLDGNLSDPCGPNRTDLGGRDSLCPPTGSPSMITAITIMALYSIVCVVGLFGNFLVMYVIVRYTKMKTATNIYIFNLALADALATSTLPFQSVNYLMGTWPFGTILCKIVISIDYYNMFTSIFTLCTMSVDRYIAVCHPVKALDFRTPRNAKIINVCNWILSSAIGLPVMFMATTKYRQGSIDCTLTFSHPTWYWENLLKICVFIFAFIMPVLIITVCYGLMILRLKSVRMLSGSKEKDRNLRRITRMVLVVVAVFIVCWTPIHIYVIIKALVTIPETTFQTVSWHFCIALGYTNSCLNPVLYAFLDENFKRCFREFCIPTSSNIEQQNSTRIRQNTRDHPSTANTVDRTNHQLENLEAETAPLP
Assay Endpoint: Emax (%)
Give just the numeric value; % need not be written.

Below, 4 compounds whose answers are already recorded.
Compound | System Tested | Numeric Value
Oc1ccc2c3c1O[C@H]1[C@@H](O)C=C[C@H]4[C@@H](C2)N(CCc2ccccc2)CC[C@@]341 [Compound 1a] | human µOR (Homo sapiens) | 107
CO[C@@]12CCC(=O)[C@]3(C)Oc4c(O)ccc5c4[C@@]31CCN(C)[C@@H]2C5 [14-MM (4), 14-methoxymetopon, reference compound] | human µOR (Homo sapiens) | 93
CO[C@@]12CCC(=O)[C@]3(C)Oc4c(O)ccc5c4[C@@]31CCN(CCc1ccccc1)[C@@H]2C5 [Compound 4a] | human µOR (Homo sapiens) | 98
CO[C@@]12CCC(=O)[C@@H]3Oc4c(O)ccc5c4[C@@]31CCN(CCc1ccccc1)[C@@H]2C5 [Compound 3a] | human µOR (Homo sapiens) | 88

Here's the next entry for you.
[in] Please give measured Emax of the following entry: CO[C@@]12CCC(=O)[C@@H]3Oc4c(O)ccc5c4[C@@]31CCN(C)[C@@H]2C5 [14-OMO (3), 14-O-methyloxymorphone, reference compound]
[out] 90

====

biological target: human κOR (Homo sapiens, UniProt P41145); assay: [35S]GTPγS binding assay, CHO-hκOR membranes
Assay Endpoint: EC50 (nM)
Give just the numeric value; nM need not be written.

Below, 3 compounds whose answers are already recorded.
Compound | Unit Descriptor | Numeric Value
CO[C@@]12CCC(=O)[C@@H]3Oc4c(O)ccc5c4[C@@]31CCN(CCc1ccccc1)[C@@H]2C5 | nM | 144
CO[C@@]12CCC(=O)[C@@H]3Oc4c(O)ccc5c4[C@@]31CCN(C)[C@@H]2C5 [14-OMO (3), 14-O-methyloxymorphone, reference compound] | nM | 135
CO[C@@]12CCC(=O)[C@]3(C)Oc4c(O)ccc5c4[C@@]31CCN(CCc1ccccc1)[C@@H]2C5 | nM | 334

Here's the next entry for you.
[in] Please give measured EC50 of the following entry: CO[C@@]12CCC(=O)[C@]3(C)Oc4c(O)ccc5c4[C@@]31CCN(C)[C@@H]2C5 [14-MM (4), 14-methoxymetopon, reference compound]
[out] 181

Attribution: paper PMC7101422
